system: rice (Oryza sativa); test: Test C flooded paddy test plant response; assay type: in vivo; details: Flood, 250 g ai/ha; scale of 0 to 100 where 0 is no effect and 100 is complete control; 13 to 15 days

{"COMPOUND": "Fc1cnc(Oc2ccccc2-c2cnccn2)nc1", "Rice plant response rating": 0}
{"COMPOUND": "Clc1cnc(Oc2ccccc2-c2cocn2)nc1", "Rice plant response rating": 0}
{"COMPOUND": "COc1ccnc(-c2ccccc2Oc2ncc(Cl)cn2)c1", "Rice plant response rating": 0}
{"COMPOUND": "Fc1cccc(Oc2ncc(Cl)cn2)c1-c1cccc(OC(F)(F)F)c1", "Rice plant response rating": 35}
{"COMPOUND": "Cc1cc(-c2ccccc2Oc2ncc(Cl)cn2)no1 [Compound 60]", "Rice plant response rating": 30}
{"COMPOUND": "CC(=O)c1cc(-c2ccccc2Oc2ncc(Cl)cn2)no1", "Rice plant response rating": 0}
{"COMPOUND": "FC(F)(F)C(F)(F)c1cc(-c2ccccc2Oc2ncc(Cl)cn2)no1", "Rice plant response rating": 0}
{"COMPOUND": "COc1cccc(Oc2ncc(Cl)cn2)c1-c1cc(C(F)F)on1", "Rice plant response rating": 35}
{"COMPOUND": "FC(F)(F)c1csc(-c2ccccc2Oc2ncc(Br)cn2)n1", "Rice plant response rating": 20}
{"COMPOUND": "Cc1c(-c2ccccc2Oc2ncc(Cl)cn2)noc1C(F)(F)F", "Rice plant response rating": 0}

----------
system: kochia (Kochia scoparia); assay: Test B pre-/postemergence plant response; assay type: in vivo; conditions: Preemergence, 31 g ai/ha; 0 to 100 scale (0 no effect, 100 complete control)
// reported Kochia plant response rating for each item listed
READOUT: Kochia plant response rating

{"SMILES STRING": "Fc1cc(F)c(-c2cc(C(F)F)no2)c(Oc2ncc(Cl)cn2)c1", "NUMERIC RESULT": 0}
{"SMILES STRING": "CCn1nc(C(F)(F)F)cc1-c1c(C#N)cccc1Oc1ncc(Cl)cn1", "NUMERIC RESULT": 0}
{"SMILES STRING": "Fc1ccc(Oc2ncc(Cl)cn2)c(-c2cc(C(F)F)on2)c1Cl", "NUMERIC RESULT": 50}
{"SMILES STRING": "N#Cc1cc(-c2ccccc2Oc2ncc(Cl)cn2)no1", "NUMERIC RESULT": 0}

----------
system: oilseed rape (Brassica napus); test: Test D pre-/postemergence plant response; assay type: in vivo; settings: Preemergence, 125 g ai/ha
READOUT: Plant response rating (scale 0 to 100), Oilseed Rape

{"SMILES STRING": "Cc1cc(-c2c(F)cccc2Oc2ncc(Cl)cn2)on1", "NUMERIC RESULT": 100}
{"SMILES STRING": "Fc1cccc(Oc2ncc(Br)cn2)c1-c1cc(C(F)F)on1", "NUMERIC RESULT": 100}
{"SMILES STRING": "COc1cccc(Oc2ncc(Cl)cn2)c1-c1cc(C(F)(F)F)no1", "NUMERIC RESULT": 50}
{"SMILES STRING": "FC(F)(F)c1cc(-c2ccccc2Oc2ncc(Cl)cn2)ncn1", "NUMERIC RESULT": 100}
{"SMILES STRING": "Fc1ccc(Oc2ncc(Cl)cn2)c(-c2cc(C(F)F)on2)c1F", "NUMERIC RESULT": 100}

----------
Collected Pigweed plant response rating values appear next to each entry.
system: pigweed (Amaranthus retroflexus); assay: Test D pre-/postemergence plant response; type: in vivo; conditions: Postemergence, 31 g ai/ha; scale 0 to 100 (0 no effect, 100 complete control)

{"SMILES STRING": "Fc1cccc(Oc2ncc(Cl)cn2)c1-c1cc(C2CC2)on1", "MEASURED ON": "pigweed (Amaranthus retroflexus)", "Pigweed plant response rating": 95}
{"SMILES STRING": "N#Cc1cccc(Oc2ncc(Cl)cn2)c1-c1cc(C(F)(F)F)on1", "MEASURED ON": "pigweed (Amaranthus retroflexus)", "Pigweed plant response rating": 65}
{"SMILES STRING": "Cc1cc(-c2ccccc2Oc2ncc(Cl)cn2)no1", "MEASURED ON": "pigweed (Amaranthus retroflexus)", "Pigweed plant response rating": 20}
{"SMILES STRING": "FCc1cc(-c2c(Br)cccc2Oc2ncc(Cl)cn2)no1", "MEASURED ON": "pigweed (Amaranthus retroflexus)", "Pigweed plant response rating": 30}
{"SMILES STRING": "FC(F)c1cc(-c2ccccc2Oc2ncc(Br)cn2)on1", "MEASURED ON": "pigweed (Amaranthus retroflexus)", "Pigweed plant response rating": 100}
{"SMILES STRING": "Fc1cccc(Oc2ncc(Br)cn2)c1-c1cc(C(F)F)on1", "MEASURED ON": "pigweed (Amaranthus retroflexus)", "Pigweed plant response rating": 95}
{"SMILES STRING": "FC(F)c1cc(-c2c(Cl)cccc2Oc2ncc(Br)cn2)on1", "MEASURED ON": "pigweed (Amaranthus retroflexus)", "Pigweed plant response rating": 98}

----------
system: Italian ryegrass (Lolium multiflorum); experiment: Test B pre-/postemergence plant response; type: in vivo; conditions: Postemergence, 500 g ai/ha; 0 to 100 scale (0 no effect, 100 complete control)
Reported values of Plant response rating, Ryegrass, Italian for individual entries
READOUT: Plant response rating, Ryegrass, Italian

{"SMILES STRING": "Cn1nncc1-c1ccccc1Oc1ncc(Cl)cn1", "MEASURED ON": "Italian ryegrass (Lolium multiflorum)", "NUMERIC RESULT": 0}
{"SMILES STRING": "Cn1ccnc1-c1ccccc1Oc1ncc(Cl)cn1", "MEASURED ON": "Italian ryegrass (Lolium multiflorum)", "NUMERIC RESULT": 0}
{"SMILES STRING": "Cn1nnnc1-c1ccccc1Oc1ncc(Cl)cn1", "MEASURED ON": "Italian ryegrass (Lolium multiflorum)", "NUMERIC RESULT": 0}

----------
tested on: pigweed (Amaranthus retroflexus); experiment: Test D pre-/postemergence plant response; type: in vivo; settings: Preemergence; 16 g ai/ha; scale 0 to 100 (0 no effect, 100 complete control)
Overview of recorded Plant response rating, Pigweed for various compounds

{"SMILES STRING": "Fc1ccc(Oc2ncc(Cl)cn2)c(-c2cc(C(F)F)on2)c1F", "Plant response rating, Pigweed": 100}
{"SMILES STRING": "Cc1cc(-c2ccccc2Oc2ncc(Cl)cn2)on1", "Plant response rating, Pigweed": 50}
{"SMILES STRING": "FC(F)(F)c1cc(-c2ccccc2Oc2ncc(Cl)cn2)ncn1", "Plant response rating, Pigweed": 5}
{"SMILES STRING": "FC(F)Oc1cccc(Oc2ncc(Cl)cn2)c1-c1cc(C(F)F)on1", "Plant response rating, Pigweed": 100}
{"SMILES STRING": "Cc1cc(-c2c(F)cccc2Oc2ncc(Cl)cn2)on1", "Plant response rating, Pigweed": 100}

----------
tested on: johnsongrass (Sorghum halepense); experiment: Test D pre-/postemergence plant response; format: in vivo; settings: Postemergence, 125 g ai/ha; scale 0 to 100, 0 no effect, 100 complete control

{"SMILES STRING": "Fc1cccc(Oc2ncc(Cl)cn2)c1-c1cc(C(F)(F)F)no1", "MEASURED ON": "johnsongrass (Sorghum halepense)", "Plant response rating, Johnsongrass": 60}
{"SMILES STRING": "FC(F)c1cc(-c2c(Cl)cccc2Oc2ncc(Cl)cn2)on1", "MEASURED ON": "johnsongrass (Sorghum halepense)", "Plant response rating, Johnsongrass": 85}
{"SMILES STRING": "CC(F)(F)c1cc(-c2ccccc2Oc2ncc(Br)cn2)no1", "MEASURED ON": "johnsongrass (Sorghum halepense)", "Plant response rating, Johnsongrass": 10}
{"SMILES STRING": "Fc1cccc(Oc2ncc(Cl)cn2)c1-c1cc(C2CC2)on1", "MEASURED ON": "johnsongrass (Sorghum halepense)", "Plant response rating, Johnsongrass": 10}
{"SMILES STRING": "FC(F)Oc1cccc(Oc2ncc(Cl)cn2)c1-c1cc(C(F)F)on1", "MEASURED ON": "johnsongrass (Sorghum halepense)", "Plant response rating, Johnsongrass": 45}
{"SMILES STRING": "Fc1ccc(Oc2ncc(Cl)cn2)c(-c2cc(C(F)F)on2)c1F", "MEASURED ON": "johnsongrass (Sorghum halepense)", "Plant response rating, Johnsongrass": 10}
{"SMILES STRING": "FCc1cc(-c2c(Br)cccc2Oc2ncc(Cl)cn2)no1", "MEASURED ON": "johnsongrass (Sorghum halepense)", "Plant response rating, Johnsongrass": 5}
{"SMILES STRING": "Cc1cc(-c2c(F)cccc2Oc2ncc(Br)cn2)on1", "MEASURED ON": "johnsongrass (Sorghum halepense)", "Plant response rating, Johnsongrass": 5}
